assayName: stimulators of nuclear beta-catenin in C2C12, primary screen, imaging, WNT3A-conditioned medium, mouse C2C12, NPC library (AID 1117326); further: reference of the scale not given here
experimentalParameters: stimulation, at 2 µM, stronger effect = higher value
Please go through the items and note down their nuclear beta-catenin stimulation.
# do not omit the unit; it follows the number

Consider the following illustrative entries.
compound	nuclear beta-catenin stimulation
CC[N+](C)(C)c1cccc(O)c1	0.9%
CCOC(=O)c1cc(=O)c2c(OCC(COc3cccc4oc(C(=O)OCC)cc(=O)c34)OC(=O)[C@@H](N)CCCCN)cccc2o1	1.2%
Nc1nc2ncc(CNc3ccc(C(=O)N[C@@H](CCC(=O)O)C(=O)O)cc3)nc2c(=O)[nH]1	0.5%
c1ccc(CC2=NCCN2)cc1	1%
O=C(N/N=C/c1ccccc1O)c1ccncc1	11.1%

Value sought for every listed compound: nuclear beta-catenin stimulation.
1. Cc1cc(O)c(Cl)c(C)c1Cl
2. O=P(O)(O)C(Sc1ccc(Cl)cc1)P(=O)(O)O
3. N#C/C(=C1/SC[C@@H](c2ccc(Cl)cc2Cl)S1)n1ccnc1
4. C[C@H](CS)C(=O)N1CCC[C@H]1C(=O)O

["-0.1%", "1.6%", "2.8%", "0.9%"]

Batch of 2 compounds: report nuclear beta-catenin stimulation for each.
1. CC(C)(C)c1nnc(NS(=O)(=O)c2ccc(N)cc2)s1
2. OC(CCN1CCCCC1)(c1ccccc1)C1CCCCC1 (stereo unspecified)

1. -1.2%
2. 7.5%

# batch size: 2; output nuclear beta-catenin stimulation per entry
1. CN(C)c1ccc(C(=C2C=CC(=[N+](C)C)C=C2)c2ccccc2)cc1
2. Nc1c(NC/C=C\COc2cc(CN3CCCCC3)ccn2)c(=O)c1=O

1. 63.1%
2. -1.1%

Could you report nuclear beta-catenin stimulation for every entry in the following list?
1. O=c1[nH]c2ccccc2c(=O)n1CCCl
2. Oc1ccccc1
3. Nc1nc2ccc(OC(F)(F)F)cc2s1

1.4%
0.2%
-0.8%

====

assayName: ovarian cancer cell viability with rucaparib, profiling panel, oncology-focused library, rucaparib conditional (AID 1508598)
experimentalParameters: patient-derived ovarian cancer cells, CellTiter-Glo viability, 144 h; at 0.00122 µM; OCI-P5x cells; without rucaparib; stronger effect = lower value
metricName: viability (%)
Numbers only, in %.

compound	reportedResult
O=C1CCC(N2C(=O)c3ccccc3C2=O)C(=O)N1 (stereo not drawn)	109

Could I get viability for every one of these entries?
1. NC(=O)c1ccc(-c2nc(-c3ccc4c(c3)OCO4)c(-c3ccccn3)[nH]2)cc1
2. O=c1[nH]cc(F)c(=O)[nH]1

1. 103
2. 115

Hi team, please reply with viability for each item in this list.
1. CN(CCOc1ccc(CC2SC(=O)NC2=O)cc1)c1ccccn1 (stereo not drawn)
2. O=c1[nH]cnc2[nH]ncc12
3. CC(C)C(=O)Nc1ccc([N+](=O)[O-])c(C(F)(F)F)c1
4. CCCCCCNC(=O)n1cc(F)c(=O)[nH]c1=O
5. Cc1ccc(-c2cc(C(F)(F)F)nn2-c2ccc(S(N)(=O)=O)cc2)cc1

[108, 118, 104, 115, 91.9]

====

For each of the compounds below, state its inhibition of viability.
assayName: HCT116 colon cancer cell growth inhibition, primary screen, CellTiter-Glo luminescence, NPC library (AID 1117342)
experimentalParameters: at 20 µM (top of the series)
Answers are plain numbers, in %.

compound	unitSpec	inhibition of viability
Cc1ccc(S(=O)(=O)NC(=O)NC2CCCCC2)cc1	%	0.6
CSCC[C@H](N)C(=O)O	%	0.5
Cc1nc([N+](=O)[O-])cn1-c1ccc([N+](=O)[O-])cc1	%	18.2

Give measured inhibition of viability for every item shown.
1. N[C@@H](CSCCCO)C(=O)O
2. O=C1CCC(N2C(=O)c3ccccc3C2=O)C(=O)N1 (configuration not stated)
3. CC(=O)Nc1ccc(/C=N/NC(N)=S)cc1
4. O=C1C(CCS(=O)c2ccccc2)C(=O)N(c2ccccc2)N1c1ccccc1 (configuration not stated)
5. CN1CC(=O)NC1=N
6. O=C(CCN1CCN2CCCC2C1)N1c2ccccc2Sc2ccc(Cl)cc21 (configuration not stated)
7. COc1ccccc1OC(=O)Oc1ccccc1OC

1: -17.6; 2: 6.9; 3: 13.3; 4: -1.5; 5: -3.43; 6: 61.4; 7: 3.6

Please state, for each entry, its recorded inhibition of viability.
1. CC1(C)S[C@@H]2[C@H](NC(=O)C(c3ccccc3)S(=O)(=O)O)C(=O)N2[C@H]1C(=O)O (some centres not stated)
2. CC(=O)SC[C@@H](Cc1ccccc1)C(=O)NCC(=O)OCc1ccccc1

1. 1.3
2. -2

Where do these numbers come from? They come from PubChem BioAssay.
